For each of the molecules below, state its IC50.
TARGET_UNDER_TEST: Tyrosine-protein phosphatase non-receptor type 1 (Homo sapiens, UniProt P18031)
Sequence (P18031 whole entry): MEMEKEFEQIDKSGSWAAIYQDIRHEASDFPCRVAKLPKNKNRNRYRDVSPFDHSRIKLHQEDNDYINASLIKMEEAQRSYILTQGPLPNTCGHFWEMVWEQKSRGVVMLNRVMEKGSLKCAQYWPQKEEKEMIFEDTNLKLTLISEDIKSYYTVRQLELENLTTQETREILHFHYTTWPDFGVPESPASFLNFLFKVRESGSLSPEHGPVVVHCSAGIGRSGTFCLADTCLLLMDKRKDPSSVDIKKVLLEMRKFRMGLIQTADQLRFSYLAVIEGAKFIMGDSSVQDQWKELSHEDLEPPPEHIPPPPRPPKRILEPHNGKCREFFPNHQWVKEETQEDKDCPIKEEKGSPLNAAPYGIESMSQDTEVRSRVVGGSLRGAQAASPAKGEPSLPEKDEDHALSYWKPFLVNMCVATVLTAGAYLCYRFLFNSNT
TEST_DESCRIPTION: Inhibition of recombinant human PTP1B using pNPP as substrate measured after 30 mins
STUDY_CONDITIONS: read-out: IC50
Numbers only, in µM.

Below: 2 molecules and their reported IC50.
C=CCc1cc(/C=C/C(=O)c2ccc(N(C)C)cc2)c(OC)cc1O : 6.9
C=CCc1cc(/C=C/C(=O)c2cccc(N3CCCCC3)c2)c(OC)cc1O : 7.2

Count: 3. Required value per item: IC50.
1. C=CCc1cc(/C=C/C(=O)c2ccc(N3CCCCC3)cc2)c(OC)cc1O
2. C=CCc1cc(/C=C/C(=O)c2ccc(OC)c(C(C)C(=C)C)c2)c(OC)cc1O (stereo not given)
3. C=CCOc1ccc(C(=O)/C=C/c2cc(CC=C)c(O)cc2OC)c(O)c1

[A]
6.9
5.4
6.5

* * *

TARGET_UNDER_TEST: Tyrosine-protein phosphatase non-receptor type 1 (Homo sapiens, UniProt P18031)
TEST_DESCRIPTION: Inhibition of recombinant human PTP1B using pNPP as substrate measured after 30 mins
STUDY_CONDITIONS: read-out: IC50
MEASUREMENT_KIND: IC50 (µM)
Numbers only, in µM.

C=CCc1cc(/C=C/C(=O)c2cccc(N(C)C)c2)c(OC(C)C)cc1O : 6.9
C=CCc1cc(/C=C/C(=O)c2cccc(N(C)C)c2)c(OC)cc1O : 0.57
C=CCc1cc(/C=C/C(=O)c2ccccc2N2CCCCC2)c(OC)cc1O : 9.5

Count: 2. Required value per item: IC50.
1. C=CCc1cc(/C=C/C(=O)c2ccc(OC)cc2)c(OC)cc1O
2. C=CCc1cc(/C=C/C(=O)c2ccc(OC)c(CC=C(C)C)c2)c(OC)cc1O

[A]
1: 7.4; 2: 8.2
